All figures here come from ChEMBL document CHEMBL1127534.

// Ratio lookup, one value per entry
Species: Oryctolagus cuniculus
ASSAY_METHOD_TEXT: Antiaggregatory effect was evaluated on rabbit platelet aggregation induced by ADP.
Type: functional

>  <MOLECULE>
CCNC(=O)[C@H]1O[C@@H](n2cnc3c(N)nc(C#CC4(N)CCCCC4)nc32)[C@H](O)[C@@H]1O

>  <Ratio>
0.6

$$$$
>  <MOLECULE>
CCNC(=O)[C@H]1O[C@@H](n2cnc3c(N)nc(C#CC4=CCCCC4)nc32)[C@H](O)[C@@H]1O

>  <Ratio>
0.03

$$$$
>  <MOLECULE>
CCNC(=O)[C@H]1O[C@@H](n2cnc3c(N)nc(C#CCCOC4CCCCO4)nc32)[C@H](O)[C@@H]1O (some centres undefined)

>  <Ratio>
0.3

$$$$
>  <MOLECULE>
CCNC(=O)[C@H]1O[C@@H](n2cnc3c(N)nc(C#CC4(O)CCCC4)nc32)[C@H](O)[C@@H]1O

>  <Ratio>
5.3

$$$$

###

TARGET_SYSTEM: Adenosine receptor A1 (Rattus norvegicus, UniProt P25099)
Sequence (P25099 whole entry): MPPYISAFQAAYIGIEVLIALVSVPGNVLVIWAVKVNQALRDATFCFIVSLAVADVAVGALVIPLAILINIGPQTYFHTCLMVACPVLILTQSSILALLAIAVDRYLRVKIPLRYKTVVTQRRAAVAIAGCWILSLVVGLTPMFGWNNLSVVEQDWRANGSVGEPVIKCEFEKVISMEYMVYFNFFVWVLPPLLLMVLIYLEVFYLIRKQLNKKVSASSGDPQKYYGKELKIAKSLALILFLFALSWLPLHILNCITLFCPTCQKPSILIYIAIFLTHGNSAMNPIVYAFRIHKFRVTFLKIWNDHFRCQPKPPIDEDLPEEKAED
ASSAY_METHOD_TEXT: Affinity for A1 Adenosine receptor in rat brain using [3H]CHA
Assay type: tissue-based
pKi: −log10 of the molar value.
OBSERVABLE: pKi

>  <MOLECULE>
CCNC(=O)[C@H]1O[C@@H](n2cnc3c(N)nc(C#CC(O)CC)nc32)[C@H](O)[C@@H]1O (stereo partly specified)

>  <OBSERVABLE>
pKi

>  <RECORDED_RESULT>
7.69

$$$$

###

TARGET_SYSTEM: Adenosine receptor A1 (Rattus norvegicus)
ASSAY_METHOD_TEXT: biochemical
Description: Affinity for adenosine A1 receptor assayed in a competition assay in rat brain using [3H]-CHA as radioligand
// Ki lookup, one value per entry

>  <COMPOUND>
C=C(C)C#Cc1nc(N)c2ncn([C@@H]3O[C@H](C(=O)NCC)[C@@H](O)[C@H]3O)c2n1

>  <UNIT_STRING>
nM

>  <Ki>
167

$$$$
>  <COMPOUND>
CCNC(=O)[C@H]1O[C@@H](n2cnc3c(N)nc(C#CCCCO)nc32)[C@H](O)[C@@H]1O

>  <UNIT_STRING>
nM

>  <Ki>
99.9

$$$$
>  <COMPOUND>
CCNC(=O)[C@H]1O[C@@H](n2cnc3c(N)nc(C#CC(C)(O)CC(C)C)nc32)[C@H](O)[C@@H]1O (stereo partly drawn)

>  <UNIT_STRING>
nM

>  <Ki>
3

$$$$
>  <COMPOUND>
CCNC(=O)[C@H]1O[C@@H](n2cnc3c(N)nc(C#CCCOC4CCCCO4)nc32)[C@H](O)[C@@H]1O (stereo partly drawn)

>  <UNIT_STRING>
nM

>  <Ki>
267

$$$$
>  <COMPOUND>
CCNC(=O)[C@H]1O[C@@H](n2cnc3c(N)nc(C#CCCCC#N)nc32)[C@H](O)[C@@H]1O

>  <UNIT_STRING>
nM

>  <Ki>
184

$$$$
>  <COMPOUND>
CCNC(=O)[C@H]1O[C@@H](n2cnc3c(N)nc(C#CC4(O)CCCC4)nc32)[C@H](O)[C@@H]1O

>  <UNIT_STRING>
nM

>  <Ki>
4

$$$$
>  <COMPOUND>
CCNC(=O)[C@H]1O[C@@H](n2cnc3c(N)nc(C#CCC(C)O)nc32)[C@H](O)[C@@H]1O (stereo partly drawn)

>  <UNIT_STRING>
nM

>  <Ki>
69.6

$$$$
>  <COMPOUND>
CCNC(=O)[C@H]1O[C@@H](n2cnc3c(N)nc(C#CCO)nc32)[C@H](O)[C@@H]1O

>  <UNIT_STRING>
nM

>  <Ki>
14.1

$$$$

###

ASSAY_METHOD_TEXT: Hydrophobicity index (k') (RP-HPLC)
Type: ADME

>  <COMPOUND>
CCNC(=O)[C@H]1O[C@@H](n2cnc3c(N)nc(C#CC(OCC)OCC)nc32)[C@H](O)[C@@H]1O

>  <k'>
1.63

$$$$
>  <COMPOUND>
CCNC(=O)[C@H]1O[C@@H](n2cnc3c(N)nc(C#CCN(C)C)nc32)[C@H](O)[C@@H]1O

>  <k'>
0.37

$$$$
>  <COMPOUND>
CCNC(=O)[C@H]1O[C@@H](n2cnc3c(N)nc(C#CC(O)c4ccccc4)nc32)[C@H](O)[C@@H]1O (some centres undefined)

>  <k'>
0.82

$$$$
>  <COMPOUND>
CCNC(=O)[C@H]1O[C@@H](n2cnc3c(N)nc(C#CC(C)(O)CC(C)C)nc32)[C@H](O)[C@@H]1O (some centres undefined)

>  <k'>
1.84

$$$$

###

ASSAY_METHOD_TEXT: Hydrophobicity index (k') (RP-HPLC)
Format: ADME
Answer rule not met if k' is under 0.2, and rule met if it is 0.2 or more.

>  <COMPOUND>
CCNC(=O)[C@H]1O[C@@H](n2cnc3c(N)nc(C#CCCCO)nc32)[C@H](O)[C@@H]1O

>  <CLASS_ASSIGNMENT>
rule met

$$$$
>  <COMPOUND>
CCNC(=O)[C@H]1O[C@@H](n2cnc3c(N)nc(C#CCC(C)O)nc32)[C@H](O)[C@@H]1O (some centres not stated)

>  <CLASS_ASSIGNMENT>
rule met

$$$$
>  <COMPOUND>
CCNC(=O)[C@H]1O[C@@H](n2cnc3c(N)nc(C#CC(C)O)nc32)[C@H](O)[C@@H]1O (some centres not stated)

>  <CLASS_ASSIGNMENT>
rule met

$$$$
>  <COMPOUND>
CCNC(=O)[C@H]1O[C@@H](n2cnc3c(N)nc(C#CC(O)CC)nc32)[C@H](O)[C@@H]1O (some centres not stated)

>  <CLASS_ASSIGNMENT>
rule met

$$$$
>  <COMPOUND>
CCNC(=O)[C@H]1O[C@@H](n2cnc3c(N)nc(C#CC(C)(O)c4ccccc4)nc32)[C@H](O)[C@@H]1O (some centres not stated)

>  <CLASS_ASSIGNMENT>
rule met

$$$$
>  <COMPOUND>
OC[C@H]1O[C@@H](n2cnc3c(NC4CCCC4)nc(Cl)nc32)[C@H](O)[C@@H]1O

>  <CLASS_ASSIGNMENT>
rule met

$$$$
>  <COMPOUND>
CCNC(=O)[C@H]1O[C@@H](n2cnc3c(N)nc(C#CC4(O)CCCC4)nc32)[C@H](O)[C@@H]1O

>  <CLASS_ASSIGNMENT>
rule met

$$$$
>  <COMPOUND>
CCNC(=O)[C@H]1O[C@@H](n2cnc3c(N)nc(C#CCO)nc32)[C@H](O)[C@@H]1O

>  <CLASS_ASSIGNMENT>
rule not met

$$$$
>  <COMPOUND>
CCNC(=O)[C@H]1O[C@@H](n2cnc3c(N)nc(C#CC4=CCCCC4)nc32)[C@H](O)[C@@H]1O

>  <CLASS_ASSIGNMENT>
rule met

$$$$
>  <COMPOUND>
C=C(C)C#Cc1nc(N)c2ncn([C@@H]3O[C@H](C(=O)NCC)[C@@H](O)[C@H]3O)c2n1

>  <CLASS_ASSIGNMENT>
rule met

$$$$
>  <COMPOUND>
CCNC(=O)[C@H]1O[C@@H](n2cnc3c(N)nc(C#CCCOC4CCCCO4)nc32)[C@H](O)[C@@H]1O (some centres not stated)

>  <CLASS_ASSIGNMENT>
rule met

$$$$
>  <COMPOUND>
CCNC(=O)[C@H]1O[C@@H](n2cnc3c(N)nc(C#CC4CCCCC4)nc32)[C@H](O)[C@@H]1O

>  <CLASS_ASSIGNMENT>
rule met

$$$$
>  <COMPOUND>
C#Cc1nc(N)c2ncn([C@@H]3O[C@H](C(=O)NCC)[C@@H](O)[C@H]3O)c2n1

>  <CLASS_ASSIGNMENT>
rule met

$$$$
>  <COMPOUND>
CCNC(=O)[C@H]1O[C@@H](n2cnc3c(N)nc(C#CCCCCO)nc32)[C@H](O)[C@@H]1O

>  <CLASS_ASSIGNMENT>
rule met

$$$$
>  <COMPOUND>
CCNC(=O)[C@H]1O[C@@H](n2cnc3c(N)nc(C#CCN)nc32)[C@H](O)[C@@H]1O

>  <CLASS_ASSIGNMENT>
rule not met

$$$$
>  <COMPOUND>
CCNC(=O)[C@H]1O[C@@H](n2cnc3c(N)ncnc32)[C@H](O)[C@@H]1O

>  <CLASS_ASSIGNMENT>
rule not met

$$$$

###

TARGET_SYSTEM: Adenosine receptor A1 (Rattus norvegicus, UniProt P25099)
ASSAY_METHOD_TEXT: biochemical
pKi: −log10 of the molar value.
Answer F if pKi is under 7, and T if it is 7 or more.

>  <COMPOUND>
CCNC(=O)[C@H]1O[C@@H](n2cnc3c(N)nc(C#CCN(C)C)nc32)[C@H](O)[C@@H]1O

>  <TARGET_SYSTEM>
Adenosine receptor A1 (Rattus norvegicus, UniProt P25099)

>  <CLASS_ASSIGNMENT>
T

$$$$
>  <COMPOUND>
CCNC(=O)[C@H]1O[C@@H](n2cnc3c(N)nc(C#CCN)nc32)[C@H](O)[C@@H]1O

>  <TARGET_SYSTEM>
Adenosine receptor A1 (Rattus norvegicus, UniProt P25099)

>  <CLASS_ASSIGNMENT>
T

$$$$
>  <COMPOUND>
CCNC(=O)[C@H]1O[C@@H](n2cnc3c(N)nc(C#CCCCCO)nc32)[C@H](O)[C@@H]1O

>  <TARGET_SYSTEM>
Adenosine receptor A1 (Rattus norvegicus, UniProt P25099)

>  <CLASS_ASSIGNMENT>
T

$$$$
>  <COMPOUND>
CCNC(=O)[C@H]1O[C@@H](n2cnc3c(N)nc(C#CC(C)(O)c4ccccc4)nc32)[C@H](O)[C@@H]1O (stereo not given in full)

>  <TARGET_SYSTEM>
Adenosine receptor A1 (Rattus norvegicus, UniProt P25099)

>  <CLASS_ASSIGNMENT>
T

$$$$
>  <COMPOUND>
CCNC(=O)[C@H]1O[C@@H](n2cnc3c(N)nc(C#CC4=CCCCC4)nc32)[C@H](O)[C@@H]1O

>  <TARGET_SYSTEM>
Adenosine receptor A1 (Rattus norvegicus, UniProt P25099)

>  <CLASS_ASSIGNMENT>
F

$$$$
>  <COMPOUND>
CCNC(=O)[C@H]1O[C@@H](n2cnc3c(N)nc(C#CC(O)c4ccccc4)nc32)[C@H](O)[C@@H]1O (stereo not given in full)

>  <TARGET_SYSTEM>
Adenosine receptor A1 (Rattus norvegicus, UniProt P25099)

>  <CLASS_ASSIGNMENT>
T

$$$$
>  <COMPOUND>
CCNC(=O)[C@H]1O[C@@H](n2cnc3c(N)nc(C#CC4CCCCC4)nc32)[C@H](O)[C@@H]1O

>  <TARGET_SYSTEM>
Adenosine receptor A1 (Rattus norvegicus, UniProt P25099)

>  <CLASS_ASSIGNMENT>
F

$$$$
>  <COMPOUND>
CCNC(=O)[C@H]1O[C@@H](n2cnc3c(N)nc(C#CC4(N)CCCCC4)nc32)[C@H](O)[C@@H]1O

>  <TARGET_SYSTEM>
Adenosine receptor A1 (Rattus norvegicus, UniProt P25099)

>  <CLASS_ASSIGNMENT>
F

$$$$
>  <COMPOUND>
CCNC(=O)[C@H]1O[C@@H](n2cnc3c(N)nc(C#CCCCCl)nc32)[C@H](O)[C@@H]1O

>  <TARGET_SYSTEM>
Adenosine receptor A1 (Rattus norvegicus, UniProt P25099)

>  <CLASS_ASSIGNMENT>
T

$$$$
